pIC50 for assorted compounds
- Test system: A549
- assayName: Antiproliferative assay (resazurin, 72 h)
- Format: cell-based, human
- measurementParameters: Homo sapiens, A549, Table 1, mean ± SE
pIC50 field: float, defined as -log10 of concentration (mol/L).

Field: example entries. Status: answers known.
# compound, pIC50
data = [
    ("COc1cc(Nc2cc(C)nc3nc(NCc4ccc(C(F)(F)F)cc4)nn23)cc(OC)c1OC [Compound 7w]", 5.89),
    ("COc1cc(Nc2cc(C)nc3nc(NCc4ccc5c(c4)OCO5)nn23)cc(OC)c1OC [Compound 7y]", 6.18),
    ("COc1cc(Nc2cc(C)nc3nc(NCc4ccccc4)nn23)cc(OC)c1OC [Compound 7i]", 5.43),
]

Note down pIC50 recorded for COc1cc(Nc2cc(C)nc3nc(Nc4ccc(C)cc4)nn23)cc(OC)c1OC [Compound 7g]
5.81

---

- System: Jurkat
- assayName: Antiproliferative assay (resazurin, 72 h)
- Type: cell-based, human
- measurementParameters: Homo sapiens, Jurkat; Table 1; mean ± SE; 72 h
Each entry below carries its recorded IC50.
Your answer should be a plain number; it is taken to be in µM.

Reference set, count: 5
# compoundString, testValue
measured = [
    ("COc1cc(Nc2cc(C)nc3nc(NCc4cccc(F)c4)nn23)cc(OC)c1OC", 5.55),
    ("COc1cc(Nc2cc(C)nc3nc(NCc4ccc(C)cc4)nn23)cc(OC)c1OC", 0.43),
    ("COc1cc(Nc2cc(C)nc3nc(NCc4ccncc4)nn23)cc(OC)c1OC", 9.64),
    ("COc1cc(Nc2cc(C)nc3nc(NCCc4ccc(F)cc4)nn23)cc(OC)c1OC", 9.61),
    ("COc1cc(Nc2cc(C)nc3nc(NCc4cccc(C)c4)nn23)cc(OC)c1OC", 7.02),
]

Return value of IC50 for input COc1cc(Nc2cc(C)nc3nc(Nc4ccc(F)cc4)nn23)cc(OC)c1OC , no commentary.
0.82

State its IC50 for this compound: COc1cccc(CNc2nc3nc(C)cc(Nc4cc(OC)c(OC)c(OC)c4)n3n2)c1
1.65

Tell me measured IC50 for COc1cc(Nc2cc(C)nc3nc(NCc4ccc(C(F)(F)F)cc4)nn23)cc(OC)c1OC please.
0.96

Report IC50 for COc1cc(Nc2cc(C)nc3nc(NCCc4ccccc4)nn23)cc(OC)c1OC
1.99

---

- Tested on: MDA-MB-231
- assayName: Antiproliferative assay (resazurin, 72 h)
- Assay type: cell-based, human
- measurementParameters: Homo sapiens, MDA-MB-231
propertyLabel: IC50

Specify reported IC50 for the compound shown: COc1ccc(CNc2nc3nc(C)cc(Nc4cc(OC)c(OC)c(OC)c4)n3n2)cc1
1300 nM

---

In this section, each of the compounds is paired with its reported pIC50.
- Test system: Bovine brain tubulin
- assayName: Inhibition of tubulin polymerization
- Assay type: biochemical
- measurementParameters: tubulin at 10 μM; read-out: Tubulin Assembly IC50 ± SD
On this scale, pIC50 is minus log10 of a concentration expressed in M (mol/L).

Examples with answers:
# compoundString, pIC50
measured = [
    ("COc1cc(Nc2cc(C)nc3nc(NCc4ccc(Cl)cc4)nn23)cc(OC)c1OC", 6.41),
    ("Cc1cc(Nc2ccc(Cl)cc2)n2nc(NCCCc3ccccc3)nc2n1", 6.41),
    ("COc1cc(Nc2cc(C)nc3nc(NCc4ccc(C)cc4)nn23)cc(OC)c1OC", 6.18),
    ("COc1cc(Nc2cc(C)nc3nc(NCc4ccc5c(c4)OCO5)nn23)cc(OC)c1OC", 6.00),
    ("Cc1cc(Nc2ccc(F)cc2)n2nc(NCCCc3ccccc3)nc2n1", 6.41),
]

Provide pIC50 value for the following compound: COc1cc(Nc2cc(C)nc3nc(NCCCc4ccccc4)nn23)cc(OC)c1OC
6.42
